Hello, the source for this data is ChEMBL document CHEMBL1201862, in case you need it.

# Test system: Hs-578T
# protocol-details: NCI tumour cell line growth inhibition, 48 h
Active and inactive are the calls of the source. Rule as the data show it: active = GI50 up to about 1.1 µM and inactive = higher.
metric-name: GI50

Worked cases, answers included:
[
  {
    "compound": "Cc1oncc1/N=C1\\C=C(O)C(=O)c2ccccc21",
    "metric-name": "GI50",
    "result": "9.12 µM (inactive)"
  },
  {
    "compound": "O=P1(O)c2ccccc2CSCc2ccccc21",
    "metric-name": "GI50",
    "result": "> 100 µM (inactive)"
  },
  {
    "compound": "C=C(Br)COc1ccc2c(C)cc(=O)oc2c1",
    "metric-name": "GI50",
    "result": "90.6 µM (inactive)"
  },
  {
    "compound": "COc1cc(/C=C2\\C(=O)N(c3cccc(Cl)c3)C(c3ccccc3)S2(=O)=O)cc(OC)c1OC (stereo not given)",
    "metric-name": "GI50",
    "result": "> 100 µM (inactive)"
  }
]

Inquiry: Query (compound): `Oc1cc(F)cc2cccnc12` ; field requested: GI50
Reply text: 3.68 µM (inactive)

---

# Test system: SNB-75
# protocol-details: NCI tumour cell line growth inhibition, 48 h
Activity calls are given as the source filed them. No stated cut-off is given here; in the data, active = GI50 up to about 1.1 µM and inactive = higher.
metric-name: GI50

Inquiry: For the record `COc1cccc(Nc2nc(NNC(=O)Cc3ccccc3)nc(NNC(=O)c3ccncc3)n2)c1` , what value of GI50 is listed for SNB-75?
Reply text: 53.5 µM (inactive)

Inquiry: Value wanted: GI50 (SNB-75) of entry `C(=N\c1ccc(-c2nc3ccccc3s2)cc1)/c1cccs1`
Reply text: 29.9 µM (inactive)

Inquiry: For SNB-75, provide GI50 of `O=C(NCCN1CCCCC1)c1cccc(I)c1` please.
Reply text: 55.2 µM (inactive)

Inquiry: Fill in the recorded GI50 for this compound, with SNB-75 as test system: `CCCNC(=S)N/C=C1/C(=O)Oc2ccccc2C1=O`
Reply text: 33.2 µM (inactive)

Inquiry: Request - read-out GI50 | tested on SNB-75 | compound CCOC(=O)C(CCCNC(=O)OC(C)(C)C)N(Cc1ccc(OC)cc1OC)C(=O)CC(=O)CP(=O)(OCC)OCC (configuration not stated)
Reply text: > 100 µM (inactive)

Inquiry: Fill in the recorded GI50 for this compound, with SNB-75 as test system: `O=C(O)C#CCO`
Reply text: > 100 µM (inactive)

Inquiry: Lab request: please report GI50 under test system SNB-75 for `Oc1cc(F)cc2cccnc12`
Reply text: 11.8 µM (inactive)

---

# Test system: A549
# protocol-details: NCI tumour cell line growth inhibition, 48 h
Activity calls are given as the source filed them. Rule as the data show it: active = GI50 up to about 1.1 µM and inactive = higher.
# valid calls are 1 (active), 0 (inactive); nothing else

[
  {
    "molecule": "COc1cc(O)c(C(=O)CC(C)=O)c(OC)c1",
    "label-class": 0
  },
  {
    "molecule": "O=C1C[C@@H]2C(COC(=O)c3ccccc3)N(OCc3ccccc3)C[C@@H]2O1 (some centres not stated)",
    "label-class": 0
  },
  {
    "molecule": "CCC(/C=C/C1OC(=O)C=CC1C)=C\\C(C)C/C=C/C(C)=C/C(C)C(=O)C(C)C(O)C(C)C/C(C)=C/C(=O)O (configuration not stated)",
    "label-class": 1
  }
]

Inquiry: How did this test come out for CC(=O)OCC1OC(n2c3c(c(-c4ccco4)c(C#N)c2=S)CCC3)C(OC(C)=O)C(OC(C)=O)C1OC(C)=O (configuration not stated) ?
Reply text: 0

Inquiry: I would be grateful if you could indicate the recorded call for `N#Cc1c(=O)c2cccnc2n2c1[nH]c1ccccc12` .
Reply text: 0

Inquiry: Which outcome was entered for the molecule CC1(C)OP23(NC(=O)OC2(C(F)(F)F)c2ccccc2O3)OC1(C)C (configuration not stated) in this test?
Reply text: 0

Inquiry: Dear all, I need the recorded test outcome for `Cc1cc(-c2ccccc2)nc2oc(=O)n(C)c12` , thank you.
Reply text: 0

Inquiry: Tell me the recorded outcome of this test for `O=S(O)CCCSSCCCCSSCCCS(=O)O` .
Reply text: 0

Inquiry: Any idea what this test logged for `CCOC(=O)CNC(SC)=C(C#N)C#N` ?
Reply text: 0

Inquiry: Given `C=CCc1cccc(C(=O)/C=C(O)/C=C/c2ccccc2Cl)c1O` , state the outcome it received in this test.
Reply text: 0

Inquiry: In this assay, the call recorded for O=C(NN1C(=O)CS(=O)(=O)C1c1ccc(Cl)c(Cl)c1)c1ccncc1 (configuration not stated) was what?
Reply text: 0

Inquiry: Would you mind telling me which call this test gave O=C(O)C1CCCCN1C(=O)Cc1c[nH]c2ccccc12 (configuration not stated) ?
Reply text: 0

Inquiry: Record request — test call for `O=c1[nH]c(=O)c2c([nH]1)[nH]c1ccccc12`
Reply text: 0

---

# Tested on: M19-MEL
# protocol-details: NCI tumour cell line growth inhibition, 48 h
Active and inactive are the calls of the source. Cut-off read from the data, not from the text of the source: active = GI50 up to about 1.1 µM and inactive = higher.
metric-name: GI50

Consider the reported GI50 for these compounds:
[
  {
    "compound": "CC(=O)Nc1ccc(C2[C@H]3C(=O)N(c4ccc(Cc5ccc(N6C(=O)[C@@H]7ON(c8ccccc8)C(c8ccc(NC(C)=O)cc8)[C@@H]7C6=O)cc5)cc4)C(=O)[C@H]3ON2c2ccccc2)cc1 (stereo partly drawn)",
    "test-system": "M19-MEL",
    "metric-name": "GI50",
    "result": "44.2 µM (inactive)"
  },
  {
    "compound": "O=C(O)C12CCCCC1CCCC2 (stereo not drawn)",
    "test-system": "M19-MEL",
    "metric-name": "GI50",
    "result": "> 100 µM (inactive)"
  },
  {
    "compound": "O=C(CCc1nnc2s/c(=C\\c3ccc(Cl)cc3Cl)c(=O)n12)Nc1cc(Cl)c(Cl)cc1Cl",
    "test-system": "M19-MEL",
    "metric-name": "GI50",
    "result": "> 10 µM (inactive)"
  },
  {
    "compound": "O=C(CSc1nnc(Cc2ccccc2)o1)Nc1ccc(Cl)cc1[N+](=O)[O-]",
    "test-system": "M19-MEL",
    "metric-name": "GI50",
    "result": "17 µM (inactive)"
  },
  {
    "compound": "CCOC(=O)C(CCCNC(=O)OC(C)(C)C)N(Cc1ccc(OC)cc1OC)C(=O)CC(=O)CP(=O)(OCC)OCC (stereo not drawn)",
    "test-system": "M19-MEL",
    "metric-name": "GI50",
    "result": "> 100 µM (inactive)"
  },
  {
    "compound": "Oc1ccc2c(c1)CC[N+]1=C2CCC2CCCC21 (stereo not drawn) [QUINDONIUM BROMIDE]",
    "test-system": "M19-MEL",
    "metric-name": "GI50",
    "result": "> 100 µM (inactive)"
  }
]

Inquiry: Value lookup for GI50; key = `CSc1ccc2c(cc1=O)[C@@H](NC(=O)c1ccc(F)cc1)CCc1cc(O)c(O)c(O)c1-2`
Reply text: > 100 µM (inactive)

Inquiry: Value lookup for GI50; key = O=C(NC1CCCCC1)NS(=O)(=O)c1ccc2c(c1)CCC2 [GLYHEXAMIDE]
Reply text: > 100 µM (inactive)

---

# Tested on: IGROV-1
# protocol-details: NCI tumour cell line growth inhibition, 48 h
Active and inactive are the calls of the source. Rule as the data show it: active = GI50 up to about 1.1 µM and inactive = higher.
metric-name: GI50

// solved cases for GI50 follow
[
  {
    "molecule": "Cc1ncc([N+](=O)[O-])n1CCNC(=O)CCCn1ccnc1[N+](=O)[O-]",
    "GI50": "> 100 µM (inactive)"
  },
  {
    "molecule": "O=C(O)C1CCCCN1C(=O)Cc1c[nH]c2ccccc12 (stereo not given)",
    "GI50": "> 100 µM (inactive)"
  }
]

Inquiry: Which GI50 is listed for O=C(N/N=C1/C(=O)N(c2ccc(Cl)cc2Cl)C(=O)C(=O)C1c1nc2ccccc2o1)c1ccccc1O (stereo not given) ?
Reply text: 39.9 µM (inactive)

Inquiry: Sample CC1(C)CC(=O)C2=C(C1)OC1=C(CC(C)(C)CC1=O)C2c1ccccc1[N+](=O)[O-] (stereo not given) — what was its GI50?
Reply text: > 100 µM (inactive)

Inquiry: Reported GI50, molecule CN1CCc2ccccc2C(C(=O)c2ccc3c(c2)OCO3)C1=O (stereo not given) : ____
Reply text: > 100 µM (inactive)

Inquiry: Item `N=C(N)NS(=O)(=O)c1ccc(NC(=O)c2cccc3c(Nc4ccc(S(=O)(=O)N=C(N)N)cc4)c4ccc(Cl)cc4nc23)cc1` has what recorded GI50?
Reply text: 74.8 µM (inactive)

Inquiry: Which GI50 value is on record for O=c1[nH]c(=O)n(C2CC(O)C(CO)O2)cc1C(OCC(F)(F)F)OCC(F)(F)F (stereo not given) ?
Reply text: > 100 µM (inactive)

Inquiry: Fill in: GI50 of `CC(=O)OCCn1c(Cc2ccc(C)cc2)nn(C(C)=O)c1=O` is ___
Reply text: > 100 µM (inactive)

Inquiry: Which GI50 is reported for this molecule? COc1ccc(Cc2nc3cc(C(F)(F)F)ccc3n2C[C@@H]2CCCN3CCCCC23)cc1 (stereo not given in full)
Reply text: 5.42 µM (inactive)

Inquiry: # query: GI50 of entry COC(=O)C(Cc1c[nH]c2ccccc12)NP(=O)(O)OCC1OC(n2ccc(N)nc2=O)C(O)C1O (stereo not given)
Reply text: > 100 µM (inactive)
